Molecular target: T1, mouse TROP2-Fc antigen protein (mouse, UniProt Q8BGV3 25-270, limits assumed)
T1 construct: not shown: Fc
T1 sequence (looked up): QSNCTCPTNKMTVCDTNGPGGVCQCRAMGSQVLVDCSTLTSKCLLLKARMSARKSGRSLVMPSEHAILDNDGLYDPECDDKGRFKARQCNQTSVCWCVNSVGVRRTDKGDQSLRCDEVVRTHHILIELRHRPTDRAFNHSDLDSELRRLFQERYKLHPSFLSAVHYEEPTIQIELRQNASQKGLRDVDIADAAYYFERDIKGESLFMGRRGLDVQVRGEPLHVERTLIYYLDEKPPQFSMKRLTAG
Assay: ELISA, plate coated with mouse TROP2-Fc
OBSERVED_PROPERTY: binding result

• MY1530-4-28 (VHH, Expressed in E. coli WK6 from vector pMECS, purified on a nickel column; also called MY1530-4-28 VHH; anti-TROP2 single domain antibody) VHH: QVQLQESGGGSVQAGGSLRLSCAASGFSVSTTWMHWVRQAPGKGLEWVSRIAINDHTFYAESVKGRFTMSTDNAKNTVYLQMTSLKPEDTAVYYCSPYSDYRIRGQGTQVTVSS = no binding
• MY1530-5-17 (VHH, Expressed in E. coli WK6 from vector pMECS, purified on a nickel column; also called MY1530-5-17 VHH; anti-TROP2 single domain antibody) VHH: QVQLQESGGGSVQPGGSLRLSCVVSGYTVSSVCMAWFRQAPGMERELVAGFYHSGGTYYGDSVKGRFTASQDNAKNTLYLQMNSLKPEDTATYYCARARYPSSACGTSPSNYNIWGQGTQVTVSS = no binding
